Record form. Attribute: pKi. Fill in for each entry.
# Test protocol: Inhibition of HCV NS3 protease by FRET assay
# Parameters: species or system Hepacivirus hominis
One number for each entry, as −log10 of the molar value.

C=C[C@@H]1C[C@]1(NC(=O)C(NC(=O)[C@@H](NC(=O)OC(C)(C)C)C(C)C)c1ccc(Oc2cc(-c3ccccc3)nc3cc(OC)ccc23)cc1)C(=O)O (some centres undefined)	5.62
C=C[C@@H]1C[C@]1(NC(=O)[C@@H](NC(=O)[C@@H](NC(=O)OC(C)(C)C)C(C)(C)C)c1ccc(Oc2cccc(Cl)n2)cc1)C(=O)NS(=O)(=O)C1CC1	5.59

Please supply pKi for each of the following items, keeping them in order.
1. CCC[C@H](NC(=O)[C@@H](NC(=O)[C@@H](NC(=O)OC(C)(C)C)C(C)C)c1ccc(Oc2cc(-c3ccccc3)nc3cc(OC)ccc23)cc1)C(=O)NS(=O)(=O)c1ccccc1
2. CC(C)(C)OC(=O)N[C@H]1CCCCC/C=C\[C@@H]2C[C@@]2(C(=O)NS(=O)(=O)C2CC2)NC(=O)[C@H](c2ccc(Oc3nc(Cl)cc4ccccc34)cc2)NC1=O
3. C=C[C@@H]1C[C@]1(NC(=O)[C@@H](NC(=O)[C@@H](NC(=O)OC(C)(C)C)C(C)(C)C)c1ccc(Oc2cc(-c3ccccc3)nc3cc(OC)ccc23)cc1)C(=O)NS(=O)(=O)C1CC1

[6.55, 7.13, 6.74]

Please supply pKi for each of the following items, keeping them in order.
1. C=C[C@@H]1C[C@]1(NC(=O)[C@@H](NC(=O)[C@@H](NC(=O)OC(C)(C)C)C(C)(C)C)c1ccc(Oc2nc(Cl)cc3ccccc23)cc1)C(=O)NS(=O)(=O)C1CC1
2. CCC[C@H](NC(=O)[C@@H](NC(=O)[C@@H](NC(=O)OC(C)(C)C)C(C)C)c1ccc(O)cc1)C(=O)NS(=O)(=O)c1ccccc1
3. CC(C)(C)OC(=O)N[C@H]1CCCCC/C=C\[C@@H]2C[C@@]2(C(=O)O)NC(=O)[C@H](c2ccc(Oc3nc(-c4ccncc4)cc4ccccc34)cc2)NC1=O
4. CC(C)(C)OC(=O)N[C@H]1CCCCC/C=C\[C@@H]2C[C@@]2(C(=O)NS(=O)(=O)C2CC2)NC(=O)[C@H](c2ccc(Oc3nc(-c4ccncc4)cc4ccccc34)cc2)NC1=O

1. 6.39
2. 3.89
3. 5.89
4. 6.62

* * *

# Test protocol: Inhibition of HCV NS3 protease by FRET assay
# Parameters: species or system Hepacivirus hominis
Observation type: pKi
Give bare numbers, as −log10 of the molar value.

CCC[C@H](NC(=O)[C@@H](NC(=O)[C@@H](NC(=O)OC(C)(C)C)C(C)(C)C)c1ccc(Oc2cc(-c3ccccc3)nc3cc(OC)ccc23)cc1)C(=O)NS(=O)(=O)c1ccccc1	6.64
COc1ccc2c(Oc3ccc([C@H](NC(=O)[C@@H](NC(=O)OC(C)(C)C)C(C)(C)C)C(=O)NC4(C(=O)NS(=O)(=O)c5ccccc5)CC4)cc3)cc(-c3ccccc3)nc2c1	5.92

Please supply pKi for each of the following items, keeping them in order.
1. C=C[C@@H]1C[C@]1(NC(=O)[C@@H](NC(=O)[C@@H](NC(=O)OC(C)(C)C)C(C)C)c1ccc(Oc2cc(-c3ccccc3)nc3cc(OC)ccc23)cc1)C(=O)NS(=O)(=O)C1CC1
2. C=C[C@@H]1C[C@]1(NC(=O)[C@@H](NC(=O)[C@@H](NC(=O)OC(C)(C)C)C(C)(C)C)c1ccc(Oc2cc(-c3ccccc3)nc3cc(OC)ccc23)cc1)C(=O)NS(=O)(=O)c1ccccc1

1. 6.70
2. 6.64

Fill in reported pKi for this entry: "C=C[C@@H]1C[C@]1(NC(=O)[C@@H](NC(=O)[C@@H](NC(=O)OC(C)(C)C)C(C)(C)C)c1ccc(Oc2nc(-c3ccncc3)cc3ccccc23)cc1)C(=O)NS(=O)(=O)C1CC1"
6.54

* * *

# Test protocol: Inhibition of HCV NS3 protease by FRET assay
# Design: species or system Hepacivirus hominis
Record form. Attribute: log10 of Ki. Fill in for each entry.
Heads up, the numbers here are log10 of Ki in µM units.

Below, 4 molecules whose answers are already recorded.
COc1ccc2c(Oc3ccc([C@H](NC(=O)[C@@H](NC(=O)OC(C)(C)C)C(C)(C)C)C(=O)N[C@@H](CC(F)F)C(=O)NS(=O)(=O)C4CC4)cc3)cc(-c3ccccc3)nc2c1	-0.11
CC[C@@H](C)[C@H](NC(=O)[C@@H](NC(=O)CCC(=O)O)C1CCCCC1)C(=O)N[C@H](C(=O)N[C@@H](CS)C(=O)O)c1ccccc1	0.00
C=C[C@@H]1C[C@]1(NC(=O)[C@@H](NC(=O)[C@@H](NC(=O)OC(C)(C)C)C(C)(C)C)c1ccc(Oc2ccccn2)cc1)C(=O)NS(=O)(=O)C1CC1	0.85
CC(C)(C)OC(=O)N[C@H]1CCCCC/C=C\[C@@H]2C[C@@]2(C(=O)O)NC(=O)[C@H](c2ccc(Oc3nc(Cl)cc4ccccc34)cc2)NC1=O	0.04

Please supply log10 of Ki for each of the following items, keeping them in order.
1. C=C[C@@H]1C[C@]1(NC(=O)[C@@H]1C[C@@H](Oc2cc(-c3ccccc3)nc3cc(OC)ccc23)CN1C(=O)[C@@H](NC(=O)OC(C)(C)C)C(C)C)C(=O)NS(=O)(=O)c1ccccc1
2. C=C[C@@H]1C[C@]1(NC(=O)[C@@H](NC(=O)[C@@H](NC(=O)OC(C)(C)C)C(C)C)c1ccc(Oc2cc(-c3ccccc3)nc3cc(OC)ccc23)cc1)C(=O)NS(=O)(=O)c1ccccc1
3. C=C[C@@H]1C[C@]1(NC(=O)[C@H](NC(=O)[C@@H](NC(=O)OC(C)(C)C)C(C)(C)C)c1ccc(Oc2nc(Cl)cc3ccccc23)cc1)C(=O)NS(=O)(=O)C1CC1
4. COc1ccc2c(Oc3ccc([C@@H]4NC(=O)[C@@H](NC(=O)OC(C)(C)C)CCCCC/C=C\[C@@H]5C[C@@]5(C(=O)NS(=O)(=O)c5ccccc5)NC4=O)cc3)cc(-c3ccccc3)nc2c1
5. COc1ccc2c(Oc3ccc(C(NC(=O)[C@@H](NC(=O)OC(C)(C)C)C(C)(C)C)C(=O)N[C@@H](CC(F)F)C(=O)O)cc3)cc(-c3ccccc3)nc2c1 (stereo partly specified)
6. C=C[C@@H]1C[C@]1(NC(=O)[C@H](NC(=O)[C@@H](NC(=O)OC(C)(C)C)C(C)(C)C)c1ccc(OC)cc1)C(=O)NS(=O)(=O)C1CC1
7. COc1ccc2c(Oc3ccc([C@@H]4NC(=O)[C@@H](NC(=O)OC(C)(C)C)CCCCC/C=C\[C@@H]5C[C@@]5(C(=O)O)NC4=O)cc3)cc(-c3ccccc3)nc2c1

[-3.12, -0.57, 0.04, -1.02, 0.45, 1.53, -0.10]

meta.source: ChEMBL document CHEMBL1146301
